Target Under Test: Human VEGF-A 165 (human, UniProt P15692 207-395)
Sequence (P15692 other isoform, or with tags, fused parts or gaps limits assumed): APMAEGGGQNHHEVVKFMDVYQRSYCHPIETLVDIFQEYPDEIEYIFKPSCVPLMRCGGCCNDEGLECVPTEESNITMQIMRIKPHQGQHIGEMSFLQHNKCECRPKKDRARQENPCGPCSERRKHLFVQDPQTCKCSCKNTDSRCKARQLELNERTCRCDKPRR
Test Name: cell-based or functional assay
Decision: hVEGF165 IC50 (nM), HMVEC-d proliferation beneath 0.1 nM gives True; hVEGF165 IC50 (nM), HMVEC-d proliferation meeting or exceeding 0.1 nM gives False.

Some solved cases for reference:
1. hBEW-9E10.2 (antibody, V domains shown) VH: EIQLVQSGAEVKKPGSSVKVSCKASGYTFTNYGMYWVKQAPGQGLEYMGWIDTETGRPTYADDFKGRFTFTADKSTSTAYMELSSLRSEDTAVYFCARWSGDTTGIRGPWFAYWGQGTLVTVSS VL: DIRMTQSPSSLSASVGDRVTIECLASEDIYSDLAWYQQKPGKSPKLLIYNANGLQNGVPSRFSGSGSGTDYSLTISSLQPEDVATYFCQQYNYFPGTFGQGTKLEIK	False
2. hBEW-9E10.6 (antibody, V domains shown) VH: EVQLVQSGAEVKKPGSSVKVSCKASGYTFTNYGMYWVRQAPGQGLEWMGWIDTETGRPTYADDFKGRFTFTADKSTSTAYMELSSLRSEDTAVYYCARWSGDTTGIRGPWFAYWGQGTLVTVSS VL: DIRMTQSPSSLSASVGDRVTITCLASEDIYSDLAWYQQKPGKSPKLLIYNANGLQNGVPSRFSGSGSGTDYTLTISSLQPEDVATYFCQQYNYFPGTFGQGTKLEIK	True
3. hBEW-1E3.1 (antibody, V domains shown, Humanized IgG) VH: EIQLVQSGSELKKPGASVKVSCKASGYPFTNSGMYWVKQAPGQGLEYMGWINTEAGKPTYADDFKGRFVFSLDTSVSTAYLQISSLKAEDTAVYFCARWGYISDNSYGWFDYWGQGTLVTVSS VL: ETVLTQSPATLSLSPGERATLSCRASEGVYSYMHWYQQKPGQQPRLLIYKASNLASGVPARFSGSGSGTDFTLTISSLEPEDFAVYFCHQNWNDPLTFGQGTKLEIK	False
4. hBEW-9A8.21 (antibody, V domains shown) VH: EIQLVQSGAEVKKPGASVKVSCKASGYTFTNYGMYWVRQAPGQGLEWMGWINTETGKPIYADDFKGRFTFTLDTSTSTAYMELRSLRSDDTAVYYCARVDYDGSFWFAYWGQGTLVTVSS VL: ETVLTQSPATLSLSPGERATLSCRASESVSTVIHWYQQKPGQQPRLLIHGASNLESGVPARFSGSGSGTDFTLTISSLEPEDFAVYFCQQHWNDPPTFGQGTKLEIK	True
5. hBEW-9E10.4 (antibody, V domains shown) VH: EIQLVQSGSELKKPGASVKVSCKASGYTFTNYGMYWVKQAPGQGLEYMGWIDTETGRPTYADDFKGRFVFSLDTSVSTAYLQISSLKAEDTAVYFCARWSGDTTGIRGPWFAYWGQGTLVTVSS VL: DIRMTQSPSSLSASVGDRVTITCLASEDIYSDLAWYQQKPGKSPKLLIYNANGLQNGVPSRFSGSGSGTDYTLTISSLQPEDVATYFCQQYNYFPGTFGQGTKLEIK	True

Does this binder meet the criterion hVEGF165 IC50 (nM), HMVEC-d proliferation < 0.1 nM? hBEW-1E3.5 (antibody, V domains shown, Humanized IgG) VH: EIQLVQSGAEVKKPGASVKVSCKASGYPFTNSGMYWVKQAPGQGLEYMGWINTEAGKPTYADDFKGRFTFTLDTSTSTAYLEIRSLRSDDTAVYFCARWGYISDNSYGWFDYWGQGTLVTVSS VL: ATQLTQSPSSLSASVGDRVTISCRASEGVYSYMHWYQQKPGKQPKLLIYKASNLASGVPSRFSGSGSGTDFTLTISSLQPEDFATYFCHQNWNDPLTFGQGTKLEIK
False

Now the binder hBEW-9E10.5 (antibody, V domains shown) VH: EIQLVQSGAEVKKPGSSVKVSCKASGYTFTNYGMYWVKQAPGQGLEYMGWIDTETGRPTYADDFKGRFTFTADKSTSTAYMELSSLRSEDTAVYFCARWSGDTTGIRGPWFAYWGQGTLVTVSS VL: DIRMTQSPSSLSASVGDRVTITCLASEDIYSDLAWYQQKPGKSPKLLIYNANGLQNGVPSRFSGSGSGTDYTLTISSLQPEDVATYFCQQYNYFPGTFGQGTKLEIK
False
